Experiment: Rapamycin coating affinity testing: distribution between solid and liquid phases with surfactant in water (UV-Vis)
Type: physicochemical
Conditions: 10:1 Surfactant to Rapa (w/w), 6x dilution in water
Description: One method of applying a positive surface charge to the coating is to add DMAB to the coating such that it is on its surface, at least. […] The coating is then sintered according to the RESS process. […] Rapa” are calculated from the UV-Vis absorbance spectrum of the sediment or supernatant respectively. The ratio of these two values determined the partition coefficient between the sediment and supernatant (reported in the column labeled “ratio”). […]
Recorded Sediment wt, one value per entry.

compound: CCCC[N+](CCCC)(CCCC)CCCC.[I-] [Tetrabutylammonium iodide]
Sediment wt, mg: 2.05
--
compound: CCCCCCCCCCCC[N+](C)(C)CCCCCCCCCCCC.[Br-] [DMAB, didodecyldimethylammonium bromide]
Sediment wt, mg: 3.73
--
compound: CCCCCCCCCCCCCC[N+](C)(C)CCCCCCCCCCCCCC.[Br-] [Dimethylditetradecylammonium bromide, Dimethylditetradecyl Ammonium bromide]
Sediment wt, mg: 1.9
--
compound: CCCCCCCCCCCC[N+](CCCCCCCCCCCC)(CCCCCCCCCCCC)CCCCCCCCCCCC.[Br-] [Tetradodecylammoniumbromid, Tetradodecylammonium bromide]
Sediment wt, mg: 3.6
--
compound: CCCCCCCCCCCC[N+](C)(C)C.[Br-] [Dodecyltrimethylammonium Bromide, Dodecyltrimethyl Ammonium Bromide]
Sediment wt, mg: 2.56
--
compound: CCCCCCCCCCCCCCCC[N+](C)(C)CC.[Br-] [Ethylhexadecyldimethylammonium Bromide]
Sediment wt, mg: 3.21
